# Protocol description: PAMPA-BBB permeability assay
# Condition label: PAMPA, pH 7.4, permeability coefficient (Pe), PAMPA-BBB
Measured endpoint: Papp (×10⁻⁶ cm/s)
Numeric answer only, unit ×10⁻⁶ cm/s assumed.

Exercise: If you can, please state the reported Papp value of C#CCNc1nc2c(s1)CC(N(CC#C)C(C)=O)CC2 (stereo not drawn) .
Solution: 4.6

Exercise: If you can, please state the reported Papp value of C#CCNC1CCc2nc(N)sc2C1 (stereo not drawn) .
Solution: 7.7

Exercise: If you can, please state the reported Papp value of `C#CCNc1nc2ccc(N(CC#C)C(C)=O)cc2s1` .
Solution: 10.1

###

# Assay target: hMAO-A (Homo sapiens, UniProt P21397)
# Sequence (P21397 1-527): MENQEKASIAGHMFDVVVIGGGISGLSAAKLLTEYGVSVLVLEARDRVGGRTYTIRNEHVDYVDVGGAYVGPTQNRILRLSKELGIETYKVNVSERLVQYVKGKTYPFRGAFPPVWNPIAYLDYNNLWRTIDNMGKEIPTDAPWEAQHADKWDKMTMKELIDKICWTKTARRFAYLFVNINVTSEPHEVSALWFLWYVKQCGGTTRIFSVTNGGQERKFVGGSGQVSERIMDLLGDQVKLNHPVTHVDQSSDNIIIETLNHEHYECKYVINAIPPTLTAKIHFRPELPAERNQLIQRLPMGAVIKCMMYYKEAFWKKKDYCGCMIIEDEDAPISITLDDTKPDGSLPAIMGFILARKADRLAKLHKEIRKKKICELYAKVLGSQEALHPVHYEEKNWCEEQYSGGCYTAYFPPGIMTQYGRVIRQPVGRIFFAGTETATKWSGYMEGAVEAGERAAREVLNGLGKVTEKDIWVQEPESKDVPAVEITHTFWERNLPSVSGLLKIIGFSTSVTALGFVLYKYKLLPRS
# Protocol description: hMAO-A inhibitory activity (kynuramine, spectrophotometric)
# Format: biochemical
# Condition label: read-out: hMAO-A IC50
Measured endpoint: pIC50
Please keep in mind that pIC50 is minus log10 of the molar concentration; only the number is needed.

Exercise: If you can, please state the reported pIC50 value of `C#CCN(C)Cc1ccc2nc(N)sc2c1` .
Solution: 5.57

Exercise: If you can, please state the reported pIC50 value of `C#CCNc1nc2ccc(N(CC#C)C(C)=O)cc2s1` .
Solution: 5.16

Exercise: If you can, please state the reported pIC50 value of Nc1nc2ccc(OC(F)(F)F)cc2s1 [Compound 1, riluzole, reference compound] .
Solution: 5.06

###

I'd be grateful if you could share measured remaining activity at 40 µM for these entries.
# Assay target: CK-1δ (Homo sapiens)
# Construct: amino acids 1–294; GST (N); purchased Merck Millipore
# Sequence (P48730 1-294): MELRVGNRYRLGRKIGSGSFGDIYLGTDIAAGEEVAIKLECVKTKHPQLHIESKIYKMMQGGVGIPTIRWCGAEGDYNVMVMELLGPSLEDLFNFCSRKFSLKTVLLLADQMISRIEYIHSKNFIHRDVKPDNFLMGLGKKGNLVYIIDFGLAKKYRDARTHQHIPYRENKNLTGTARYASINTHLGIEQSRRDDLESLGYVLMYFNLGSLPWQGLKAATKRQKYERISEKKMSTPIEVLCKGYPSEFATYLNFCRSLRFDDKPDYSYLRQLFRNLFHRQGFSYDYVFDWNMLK
# Protocol description: CK-1δ activity assay (KinaseGlo luminescence)
# Format: biochemical
# Condition label: read-out: residual CK-1δ activity (%)
# Protocol: CK-1δ activity assay. Compounds were evaluated towards CK-1δ (Merck Millipore, recombinant human, amino acids 1–294, with N-terminal GST-tagged) with the KinaseGloR luminescence assay (Promega) […] After 60 min of incubation at 30 °C for CK1δ the enzymatic reactions were stopped with 40 μL of Kinase-Glo reagent (Promega). Luminescence signal (relative light unit,RLU) was recorded after 10 min at 25 °C using Tecan Infinite M100. […]
Numeric answer only, unit % assumed.

Exercise: If you can, please state the reported remaining activity at 40 µM value of `C#CCNCc1ccc2nc(N)sc2c1` .
Solution: 69

Exercise: If you can, please state the reported remaining activity at 40 µM value of `C#CCNc1nc2ccc(N(CC#C)C(C)=O)cc2s1` .
Solution: 85.2

Exercise: If you can, please state the reported remaining activity at 40 µM value of `C#CCN(CC#C)Cc1ccc2nc(N)sc2c1` .
Solution: 64.4

Exercise: If you can, please state the reported remaining activity at 40 µM value of `C#CCN(C)Cc1ccc2nc(N)sc2c1` .
Solution: 83.7
